Data credit: patent US20240368149A1

# assay_comment: Rat PK: plasma prodrug concentration after intramuscular (IM) dosing of xanomeline prodrugs at 5 mg/kg (Example A-4)
# Format: in vivo, male Sprague-Dawley (SD) rats
# condition_parameters: male, Sprague-Dawley, im, 5 mg/kg, analyte prodrug, IM 5 mg/kg of xanomeline, Mean, read-out: Prodrug AUCINF_obs
attribute_measured: AUC(0-inf) (ng·h/mL)
Give the number; ng·h/mL is assumed, so skip it.

// query Sample CCCCCCOc1nsnc1C1=CCC[N+](C)(C(C)OC(=O)C(C)(C)C)C1 (stereo not shown) — what was its AUC(0-inf)?
// result 697

* * *

# assay_comment: Rat PK: plasma xanomeline after subcutaneous (SC) dosing of xanomeline, prodrugs or pamoate salts at 5 mg/kg or 3.5 mg/kg (Example A-2)
# Type: in vivo, male Sprague-Dawley (SD) rats
# condition_parameters: male, Sprague-Dawley, plasma, sc, parent xanomeline dosed SC, individual animals, read-out: Xanomeline (SC) AUC0-inf
attribute_measured: AUC(0-inf) (ng·h/mL)
Numeric answer only, unit ng·h/mL assumed.

// query Which measured AUC(0-inf) value corresponds to CCCCCCOc1nsnc1C1=CCCN(C)C1 [Xanomeline] ?
// result 185

* * *

# assay_comment: Rat PK: plasma prodrug concentration after intramuscular (IM) dosing of xanomeline prodrugs at 5 mg/kg (Example A-4)
# Format: in vivo, male Sprague-Dawley (SD) rats
# condition_parameters: male, Sprague-Dawley, intramuscular, 5 mg/kg, 0.500 h, IM 5 mg/kg of xanomeline, Mean, read-out: Prodrug Plasma Concentrations Following Intramuscular Dosing
# Procedure: • Step 1: A stock solution of the compound(s) were prepared to 1 mg/ml in DMSO • Step 2: A 10,000 ng/mL matched matrix standard was prepared using the stock solution(s) • Step 3: Calibration standards in matched matrix were prepared between 10,000 ng/ml and 0.5 ng/mL using serial dilution • Step 4: QC samples were prepared in matched matrix at 4000, 800, 400, 40 and 10 ng/mL […]
attribute_measured: concentration at 0.5 h (ng/mL)
Respond numerically; units are ng/mL and should not be typed.

// query Could you tell me which concentration at 0.5 h is on file for CCCCCCOc1nsnc1C1=CCC[N+](C)(C(C)OC(=O)C(C)(C)C)C1 (stereo not shown) ?
// result 218

* * *

# assay_comment: Rat PK: plasma xanomeline after single subcutaneous (SC) dosing of xanomeline or xanomeline prodrugs at 1 mg/kg (Example A-1)
# Type: in vivo, male Sprague-Dawley (SD) rats
# condition_parameters: male, Sprague-Dawley, plasma, sc, xanomeline analyte in plasma, Mean of animals (Table 3), read-out: T½ (converted)
# Description: A pharmacokinetic (PK) study was performed in three male Sprague-Dawley (SD) rats following subcutaneous (SC) administration of xanomeline or test compounds (prodrugs of xanomeline) at 1 mg/kg. Parent compound (xanomeline) was measured in plasma. […] The pharmacokinetic properties of the synthesized xanomeline prodrugs after subcutaneous administration in a rat model were assessed. […]
attribute_measured: half-life (h)
Unit h implied. Number only.

// query # get_value(readout='half-life', item= `CCCCCCOc1nsnc1C1=CCCN(C)C1` )
// result 1.85

* * *

# assay_comment: Rat PK: plasma prodrug concentration after intramuscular (IM) dosing of xanomeline prodrugs at 5 mg/kg (Example A-4)
# Format: in vivo, male Sprague-Dawley (SD) rats
# condition_parameters: male, Sprague-Dawley, im, 5 mg/kg, analyte prodrug, IM 5 mg/kg of xanomeline, Mean, read-out: Prodrug AUClast
attribute_measured: AUC(0-t) (ng·h/mL)
Response body: numeric value in ng·h/mL, unit text excluded.

// query For the compound shown here, CCCCCCOc1nsnc1C1=CCC[N+](C)(C(C)OC(=O)C(C)(C)C)C1 (stereo not shown) [Compound 19] , give the reported AUC(0-t).
// result 618
